Test summary: Detection of encapsulation efficiency, drug loading concentration and total RNA concentration (RiboGreen)
Assay type: physicochemical
Measurement setup: ratio vs compound 23
Measured property: total RNA concentration, times that of compound 23
The response must contain the number and no unit.

Notebook: CCCCCCCCC(CCCCCCCC)C(=O)OCCCCCCN(CCO)CCN(CCO)CCCCCCOC(=O)C(CCCCCCCC)CCCCCCCC [YK-402] , total RNA concentration, times that of compound 23 read as 1.29

The recorded total RNA concentration, times that of compound 23 for entry CCCCCCCCC(CCCCCCCC)COC(=O)CCCCCN(CCCO)CCCN(CCCO)CCCCCC(=O)OCC(CCCCCCCC)CCCCCCCC [YK-423] equals 1.32

For this molecule ( CCCCCCCCC(CCCCCCCC)OC(=O)CCCCCCCN(CCO)CCN(CCO)CCCCCCCC(=O)OC(CCCCCCCC)CCCCCCCC [YK-403] ), measured total RNA concentration, times that of compound 23 is 1.31

total RNA concentration, times that of compound 23 measured on CCCCCCCCC(CCCCCCCC)COC(=O)CCCCCN(CCCO)CCN(CCCO)CCCCCC(=O)OCC(CCCCCCCC)CCCCCCCC [YK-422] = 1.47

Per the record, CCCCCCCCCCCOC(=O)CCCN(CCO)CCN(CCO)CCCCCC(=O)OC(CCCCCCCC)CCCCCCCC [YK-407] has total RNA concentration, times that of compound 23 of 1.31

In plain terms, CCCCCCCCC(CCCCCCCC)OC(=O)CCCCCN(CCO)CCN(CCO)CCCCCC(=O)OC(CCCCCCCC)CCCCCCCC [YK-401] has a documented total RNA concentration, times that of compound 23 of 1.34
